Data provenance: patent US5332742A

- target_or_system: human renal renin (Homo sapiens, UniProt P00797)
- Sequence (P00797 67-406): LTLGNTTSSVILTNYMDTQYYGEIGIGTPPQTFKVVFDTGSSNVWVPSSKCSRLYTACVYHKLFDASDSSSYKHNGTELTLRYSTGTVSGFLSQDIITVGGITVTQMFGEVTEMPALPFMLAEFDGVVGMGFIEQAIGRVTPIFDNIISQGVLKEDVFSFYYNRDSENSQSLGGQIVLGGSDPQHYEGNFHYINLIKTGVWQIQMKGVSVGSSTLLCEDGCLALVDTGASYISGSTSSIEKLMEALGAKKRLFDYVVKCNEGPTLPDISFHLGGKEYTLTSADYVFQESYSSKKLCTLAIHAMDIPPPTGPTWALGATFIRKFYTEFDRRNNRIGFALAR
Checkbox rule: IC50 lower than 0.3 nM = 1; IC50 not lower than 0.3 nM = -1.

Solved entries:
{"compound": "CC(C)C[C@H](O)[C@H](O)[C@H](CC1CCCCC1)NC(=O)[C@H](Cc1cscn1)N(C)C(=O)C(CCc1ccccc1)NS(=O)(=O)N1CCN(C)CC1 (some centres unmarked) [Example 12F]", "assigned_category": -1}
{"compound": "CC(C)C[C@H](O)[C@H](O)[C@H](CC1CCCCC1)NC(=O)[C@H](Cc1cscn1)NC(=O)[C@H](Cc1ccccc1)CS(=O)(=O)N1CCNC(=O)C1 [Example 11F]", "assigned_category": 1}
{"compound": "CC(C)C[C@H](O)[C@H](O)[C@H](CC1CCCCC1)NC(=O)[C@H](Cc1cscn1)NC(=O)[C@H](Cc1ccccc1)CS(=O)(=O)N1CCNCC1", "assigned_category": -1}

Now look at this one.
Request: Determine whether this compound shows IC50 lower than 0.3 nM (ties excluded): CC(C)C[C@H](O)[C@H](O)[C@H](CC1CCCCC1)NC(=O)[C@H](Cc1cscn1)NC(=O)C(Cc1ccccc1)NS(=O)(=O)N1CCN(C)CC1 (some centres unmarked) [Example 13C]
Result: 1
